Values compiled from patent US20080194585A1.

system: Puccinia recondita f. sp. tritici; test: Test K: wheat leaf rust, preventive spray on wheat seedlings; conditions: 40 ppm (*)
Marks after values point to notes of the source that are not given here.
QUANTITY_KIND: Test K disease control rating

stdin: Endpoint output: Test K disease control rating of CC(CS(C)(=O)=O)n1c(-c2c(F)cccc2F)c(Cl)nc(-n2cccn2)c1=O (stereo not shown) [compound 200] . Value?
stdout: 0* %

stdin: Endpoint output: Test K disease control rating of CC(C)Cn1c(-c2c(F)cccc2F)c(Cl)nc(-n2ccnn2)c1=O [compound 215] . Value?
stdout: 55* %

stdin: Endpoint output: Test K disease control rating of COc1cccc(-c2c(Cl)nc(-n3cncn3)c(=O)n2CC(C)C)c1 [compound 245] . Value?
stdout: 0* %

stdin: Endpoint output: Test K disease control rating of CCCCn1c(-c2c(F)cc(F)cc2F)c(Cl)nc(-c2ccccn2)c1=O [compound 240] . Value?
stdout: 67* %

stdin: Endpoint output: Test K disease control rating of COCC(C)n1c(-c2c(F)cccc2F)c(Cl)nc(-n2cncn2)c1=O (stereo not shown) [compound 94] . Value?
stdout: 0* %

stdin: Endpoint output: Test K disease control rating of CCC(C)Cn1c(-c2c(F)cccc2F)c(Cl)nc(-n2ccnc2C)c1=O (stereo not shown) [compound 69] . Value?
stdout: 61* %

stdin: Endpoint output: Test K disease control rating of CC(C)Cn1c(-c2ccccc2Br)c(Cl)nc(-n2cccn2)c1=O [compound 195] . Value?
stdout: 100* %

stdin: Endpoint output: Test K disease control rating of CC(C)Cn1c(-c2c(F)cccc2F)c(Cl)nc(-c2ccncc2)c1=O [compound 84] . Value?
stdout: 0* %

stdin: Endpoint output: Test K disease control rating of CC(C)Cn1c(-c2cccc(C(F)(F)F)c2)c(Cl)nc(-n2cncn2)c1=O [compound 232] . Value?
stdout: 0* %

stdin: Endpoint output: Test K disease control rating of CC(CO)n1c(-c2c(F)cccc2F)c(Cl)nc(-n2cccn2)c1=O (stereo not shown) [compound 213] . Value?
stdout: 92* %

stdin: Endpoint output: Test K disease control rating of CC(C)Cn1c(-c2ccsc2)c(Cl)nc(-n2cncn2)c1=O [compound 159] . Value?
stdout: 0* %

stdin: Endpoint output: Test K disease control rating of CC(C)Cn1c(-c2cccc(F)c2)c(Cl)nc(-n2cccn2)c1=O [compound 231] . Value?
stdout: 28* %

stdin: Endpoint output: Test K disease control rating of O=c1c(-n2cncn2)nc(Cl)c(-c2c(F)cccc2F)n1Cc1ccco1 [compound 188] . Value?
stdout: 0* %

stdin: Endpoint output: Test K disease control rating of CC(C)Cn1c(-c2cccc(F)c2)c(Cl)nc(-n2cncn2)c1=O [compound 230] . Value?
stdout: 0* %

stdin: Endpoint output: Test K disease control rating of CC(C)(C)Cn1c(-c2c(F)cccc2F)c(Cl)nc(-n2cccn2)c1=O [compound 59] . Value?
stdout: 94* %

stdin: Endpoint output: Test K disease control rating of CC(C)Cn1c(-c2ccc(C(F)(F)F)cc2)c(Cl)nc(-n2cncn2)c1=O [compound 76] . Value?
stdout: 0* %
